B1: EHEE_rd2_0191 (parent)
chain: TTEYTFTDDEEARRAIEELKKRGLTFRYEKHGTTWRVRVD

Variants of: B1
protocol.text: folding stability dG (cDNA display proteolysis); higher = more stable
assay.setup: PBS, room temperature
Measured folding stability dG accompanies every entry in the list below.
I only need the number, in kJ/mol, no unit after it.

Reference set, count: 5
seq	reported.measurement
TTEYTFTDDEEARRAIEELKKRGLTFRYEKEGTTWRVRVD [H31E]	9.36
TTEYTFTDDEEARRAIEELKKRGLTFRYEFHGTTWRVRVD [K30F]	5.12
TTEYTFTDDEEARRAIEELKKRGLTFRYEKHGTTIRVRVD [W35I]	8.99
TTEYTFTDDESARRAIEELKKRGLTFRYEKHGTTWRVRVD [E11S]	10.2
TTEYTFTDDEEARRAIEELKKRGLTFRYAKHGTTWRVRVD [E29A]	7.32

Read off the recorded folding stability dG for TDEYTFTDDEEARRAIEELKKRGLTFRYEKHGTTWRVRVD [T2D]
5.64

Read off the recorded folding stability dG for TNEYTFTDDEEARRAIEELKKRGLTFRYEKHGTTWRVRVD [T2N]
6.61
